B1: Tyrosine-protein kinase Lck, residues 63 to 120; numbered along this chain, P06239 (parent)
chain: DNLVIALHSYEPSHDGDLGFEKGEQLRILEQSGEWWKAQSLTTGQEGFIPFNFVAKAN

# Variants of: B1
# Test Name: abundance fitness (aPCA) (normalised: wild type 0, dead -1); higher = more abundant; growth selection in yeast, the domain comes from the species named
# Conditions: Homo sapiens
abundance fitness values for the variants below.

# Mutation Notation, abundance fitness
rows = [
    ("F51D", -0.178),
    ("R27K", -0.154),
    ("L41M", -0.227),
    ("R27L", -0.056),
    ("T43S", -0.101),
    ("I28D", -0.833),
    ("T43L", -0.831),
    ("F20Q", -0.825),
    ("G19L", -0.604),
    ("G23P", -1.01),
    ("H14Y", -0.165),
]

// provenance: the Human Domainome abundance scans (Beltran et al. 2025)
